# reported pEC50; entries follow
biological target: T1, human Claudin18.2 (CLDN18.2) (human, UniProt P56856 1-261); assay: FACS on CHOK1-18.2 cells
T1 construct: the cell line is named under assay; also called human Claudine18.2; hClaudin18.2
A value of pEC50 is the negative decimal logarithm of a concentration given in moles per litre.

Sample answers from the record:
INSERT INTO results (binder, property_measured, test_value) VALUES
  ('chAb17 (antibody, V domains shown) VH: QVQLKESGPGLVAPSQSLSITCTVSGFSLTSYAISWVRQPPGKGLEWLGEIWTGGGTNYNSALKSRLSISKDNSKSQVFLKMNSLQTDDTARYYCGRLSYGNSLDYWGQGTTLTVSS VL: DIVMTQSPSSLTVTAGEKVTMSCKSSQSLLNSGNQKNYLTWYQQKPGQPPKLLIYWASTRESGVPDRFTGSGSGTDFTLTVSSVQAEDLAVYYCQNNFIYPLTFGPGTKLELK', 'pEC50', 8.32),
  ('IMAB362 (Zolbetuximab) (antibody, V domains shown) VH: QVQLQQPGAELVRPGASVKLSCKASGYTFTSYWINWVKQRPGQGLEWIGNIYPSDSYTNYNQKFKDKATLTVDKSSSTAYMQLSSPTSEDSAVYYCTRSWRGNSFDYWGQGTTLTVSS VL: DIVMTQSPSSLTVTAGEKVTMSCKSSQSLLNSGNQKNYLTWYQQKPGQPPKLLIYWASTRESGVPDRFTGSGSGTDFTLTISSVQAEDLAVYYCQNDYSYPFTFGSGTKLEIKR', 'pEC50', 8.25),
  ('chAb15 (antibody, V domains shown) VH: EVMLVESGGDLVKPGGSLKLSCAASGFTFSTYTMSWVRQTPEKRLEWVATIVGGGGYTYYLDSVKGRFTISRDNAKNTLYLQMISLRSEDTALYYCARMGLTQRNALDYWGQGTSITVSS VL: DIVMTQSPSSLSVSEGEKVTLNCKSSQSLFNSGNQKNYLAWYQQKPGQPPKLLIYGASTRESGVPDRFTGSGFGTDFTLTISSVQAEDLAVYYCQNDHTYPLTFGAGAKLELK', 'pEC50', 8.33);

Qu. Need pEC50, item chAb20 (antibody, V domains shown) VH: EVMLVESGGGLVKPGGSLKLSCVASGFTFSSYTMSWVRQTPEKRLEWVATIIGGYGNTYYSDSVKGRITISRDSAKNTLYLQMISLRSEDTALYYCTRLGQTQRNAMDYWGQGTSVTVSS VL: DILMTQSPSSLSVSAGEKVTMNCKSSQSLLNSGNQKNYLAWYQQKPGQPPKLLIYGASTRESGVPDRFTGSGSGTDFTLTISSVQAEDLAVYYCQNDYYYPFTFGAGTKLEL
Ans. 8.41

Qu. Follow-up entry: chAb25 (antibody, V domains shown) VH: EAQLQQSGPELVKPGASVKIFCKASGYTFTDYYINWVKQSHGKSLEWIGDINPNNGGTTYNQKFKGKATLTVDKSSSTASMELRRLTSEDSSVYYCARRDAMDYWGQGTSVTVSS VL: DIVMTQSQKFMSTTVGDRVSITCTASQNVGPAVAWYQQKPGQSPKLLIYSASRRFTGVPDRFTGSGSGTVFTLTINNVQSEDLADYFCQQYISYPLTFGAGTKLELK
Ans. 8.08
